All figures here come from patent US20050049294A1.

Test system: OVCAR-3 cells
PROTOCOL_DETAILS: Cell growth inhibition (resazurin, 48 hours), OVCAR-3
Type: cell-based, human
RUN_CONDITIONS: Homo sapiens, OVCAR-3, 48 h
pEC50: −log10 of the molar value.
METRIC: pEC50

| COMPOUND | METRIC | RECORDED_MEASUREMENT |
| --- | --- | --- |
| C[C@@]12OC(=O)[C@]1([C@@H](O)[C@@H]1C=CCCC1)NC(=O)[C@@H]2CCCl [Formula II-16, Salinosporamide A] | pEC50 | 7.16 |

###

Test system: MES-SA/Dx5 cells
PROTOCOL_DETAILS: cells
RUN_CONDITIONS: Homo sapiens, MES-SA/Dx5, read-out: EC50 (nM) MES-SA/Dx5, Table 16
METRIC: EC50 (nM)

| COMPOUND | UNIT_SPEC | COMPARATOR | RECORDED_MEASUREMENT |
| --- | --- | --- | --- |
| CC[C@H]1C(=O)N[C@@]2([C@@H](O)[C@@H]3C=CCCC3)C(=O)O[C@@]12C [Formula II-17] | nM | = | 9450 |
| CC[C@H]1C(=O)N[C@@]2([C@@H](O)C3CCCCC3)C(=O)O[C@@]12C [Formula II-3] | nM | > | 20000 |
| C[C@@]12OC(=O)[C@]1([C@@H](O)C1CCCCC1)NC(=O)[C@@H]2CCBr [Formula II-4] | nM | = | 178 |
| C[C@@]12OC(=O)[C@]1([C@@H](O)C1CCCCC1)NC(=O)[C@@H]2CCCl [Formula II-2] | nM | = | 220 |

###

SYSTEM: chymotrypsin-like activity of rabbit muscle 20S proteasomes (Oryctolagus cuniculus, UniProt G1T4Q9)
Sequence (G1T4Q9 1-263): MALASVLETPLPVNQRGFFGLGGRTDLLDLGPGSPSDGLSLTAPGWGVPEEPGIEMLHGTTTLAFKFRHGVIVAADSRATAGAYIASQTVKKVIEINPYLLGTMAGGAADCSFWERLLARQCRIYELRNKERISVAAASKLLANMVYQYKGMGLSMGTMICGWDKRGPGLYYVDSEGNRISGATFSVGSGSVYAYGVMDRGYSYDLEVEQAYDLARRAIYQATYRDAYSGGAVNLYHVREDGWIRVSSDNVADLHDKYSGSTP
PROTOCOL_DETAILS: Inhibition of chymotrypsin-like activity of purified rabbit muscle 20S proteasome (suc-LLVY-AMC)
Format: biochemical
RUN_CONDITIONS: representative experiment, Example 44 (FIG. 46, 47); read-out: EC50, chymotrypsin-like activity of the proteasome
Method: This peptide substrate is specific for the chymotrypsin-like enzyme activity of the proteasome. Omuralide was prepared as a 10 mM stock in DMSO and stored in 5 μL aliquots at −80° C. […] The assay measures the hydrolysis of Suc-LLVY-AMC into Suc-LLVY and AMC. The released coumarin (AMC) was measured fluorometrically by using λex=390 nm and λem=460 nm. The assays were performed in a microtiter plate (Corning 3904), and followed kinetically with measurements every five minutes. […]
METRIC: EC50 (nM)

| ENTRY_SMILES | METRIC | UNIT_SPEC | RECORDED_MEASUREMENT |
| --- | --- | --- | --- |
| C[C@@]12OC(=O)[C@]1([C@@H](O)C1CCCCC1)NC(=O)[C@@H]2CCBr | EC50 | nM | 15 |
| CC[C@H]1C(=O)N[C@@]2([C@@H](O)C3CCCCC3)C(=O)O[C@@]12C | EC50 | nM | 890 |
| C[C@@]12OC(=O)[C@]1([C@@H](O)[C@H]1CCC[C@H]3O[C@@H]13)NC(=O)[C@@H]2CCCl | EC50 | nM | 6 |
| C[C@@]12OC(=O)[C@]1([C@@H](O)[C@H]1CCC[C@@H]3O[C@H]13)NC(=O)[C@@H]2CCCl | EC50 | nM | 88 |
